Origin of the recorded values: the supplement of paper PMC9170038

The reader will find reported apparent KD of MS2 coat protein values listed item by item below.
- Tested on: MS2 coat protein
- protocol-description: apparent KD of MS2 coat protein; higher = weaker reporter binding
- condition: Eterna round: R107; input ligand: arginine 13.2 mM
Express the result in nM but write the number alone.

macromolecule-sequence: AAACGUUGCUCAGAUACCAGACAUGAGGAUCACCCAUGUACCGAGGUACCCGAAAGGAAUGUCCCUUGGCAGCUGAGCAACGAAA [MAT - Exclusion Theophlline B - Mod of Eli - D23]
measured-parameter: apparent KD of MS2 coat protein
unit-symbol: nM
reported: 14.6
//
macromolecule-sequence: GAGAGUGUGUGCGAAAGCACAGAUCUGGAAGGAGCGUAGAAAGAUACAGGUAGGUCGCCGGGACAUGAGGAUCACCCAUGUGUAU [ArgiA-ms2@63]
measured-parameter: apparent KD of MS2 coat protein
unit-symbol: nM
reported: 38.9

Asked: Consider the sequence shown here: UCAAUAAUUAGAUUGUUACAUGUAUCAGAAGGAGCGUGAGUAAUCACAGGUAGGUCGCUGUUAACAUGAGGAUCACCCAUGUUUU [JR_ExcArginiA_Sub009] What is its recorded apparent KD of MS2 coat protein?
Given back: 31.2

Asked: # iterate: AUAUCAUAGAGUGAUACCAGACUACAUGAGGAUCACCCAUGUGACAUUUAAAUAUCAUUUGUCCCUUGGCAGCACAUUAAGUACA [JR_Nu_ExcTheophyB_Sub020]
Given back: 50.6

Asked: # iterate: GUAAGACAUGAGGAUCACCCAUGUGUCGAUACCAGCCCUGCCUCUGGCCCUUGGCAGCGACUCGCACACCUCGCACUGCACAAGU [theeternabot_sameState_MS2_Theo_A_13]
Given back: 42.6

Asked: # iterate: AUGUCGUUGAAUAUAGCGGCUUGGAGUGAUACCAGCAUGAUCCAAUGCCCUUGGCAGCAUAACAUGAGGAUCACCCAUGUUCCAG [SSTheo A #26]
Given back: 32.7

----------
- Test system: K4 kissing-loop RNA reporter
- protocol-description: apparent KD of K4 kissing-loop reporter; higher = weaker reporter binding
- condition: Eterna round: R107; input ligand: none
The reader will find reported apparent KD of K4 kissing-loop reporter values listed item by item below.
Express the result in nM but write the number alone.

Illustrative cases are given below, each with its answer.
macromolecule-sequence: UGACUACAAAAGGAAUAAUCCUAGUGAUGUUAGGAUAUGCUGAUAAGCAGAAGGAACGGAGAUCGAAAGAUCUCAAAUGUAGUCU [whbob_Ex_FMNA__2th191]
reported: 82.9

macromolecule-sequence: AGUGUACAGUCGGCCGCCACUCACUCCUCCUGCGUUAACGAGUGAUGUUUGUUUUUUAGUGGUACGAGGACCGGGACUUCUCUGA [theeternabot_sameState_KL_Trp_B_35]
reported: 275

macromolecule-sequence: AUCUAUGAGCGAGGAUAUGCAUAACGCGAGUGAUGUUCGCGAUGUGGGCGUAAUUGAUAAAAUGAAGCAGAAGGCGCACUCAUGA [Exclusion - FMW B / B]
reported: 177

macromolecule-sequence: ACGCGCGCGAGUGAUGUUCGGAGCGGCUGGCAGGAUAUGUAGCAAUGCAGAAGGGUCGUGGCGGUGGGCGCGCAAGCGGCUGCCG [#2 Exclusion - FMN A Attempt #12 (HarryS)]
reported: 396

macromolecule-sequence: CGAGUACAUUGCGAUACCAGCGAUAGCAGUUCAACGCGCAGUCCGUUUAGUGAUGUUAGACGCCCUUGGCAGCGCUUCCUGGCAA [theeternabot_exclusion_KL_Theo_B_44]
reported: 460

Asked: Consider the sequence shown here: AUUAUAAAGUCGGCCGCCACUGAGAGUAGUGAUGUUACUCUAUUCCUUUAGAUAUUAUAUUUUAUCAGGACCGGGACAUCAGAUU [JR_ExcTryptoB_Sub019] What is its recorded apparent KD of K4 kissing-loop reporter?
Given back: 317

Asked: # iterate: AGGUUUUGAUUAGGAUAUGCACUGACGACGAGAAUAUAGUGAUGUUAUAUAAUACGAAUUAGUAGAGUAGAAGGGAUUGAGGUUU [SSFMNB.X]
Given back: 348

Asked: # iterate: GGAUCCACCAGUGAUGUUGGAGAAAACUCUAAGGAUAUGACGAAAGUCAGAAGGUGGUAGACUGGUCAAAGUCCGGUCGGAUCCA [FmnA10 U30+U66]
Given back: 577

Asked: # iterate: CGCAGUGAUGUUGCUUUUAUUCUUGGUUAACGAGGACCGGUACGGCCGCCACUCGAUUUCUAUCUAUUCCAGUGUUUUUUUGAGU [JR_ExcTryptoA_Sub004]
Given back: 304

Asked: # iterate: GCACACUAGUAAACUAGUGUGUUAACUGAAGGAGCGUGAAUAAUCACAGGUAGGUCGCAGUUUGUCAGUGAUGUUGACACGAGUG [Arg A SS t2]
Given back: 249

Asked: # iterate: AAGCAGUCUCUUGUAGUCAUCGAAGAUGAACGAGGACCGGUACGGCCGCCACUCGGAGUGAUGUUCCGAAGGCUGCAAAAUAAAA [MatMod 18 - Jieux - Exclusion - Tryptophan A]
Given back: 309

Asked: # iterate: UGUCAUUGGUCUGAUACCAGCUUGAUCGGAAAACGAUCUGCUGGAGUGAUGUUCCAAUAAAGCCCUUGGCAGCAGACCGAUGACU [TheoBS 7 #SwitchBubble #StaticStem]
Given back: 991

----------
- Tested on: MS2 coat protein
- protocol-description: apparent KD of MS2 coat protein; designed switch direction (-1 OFF switch, 1 ON switch): -1; higher = weaker reporter binding
- condition: input ligand: microRNA oligo, concentration not stated
measured-parameter: apparent KD of MS2 coat protein (nM)
Express the result in nM but write the number alone.

Illustrative cases are given below, each with its answer.
macromolecule-sequence: AGUAAUUCAAGAGGAUAUCACAUGAGGAUCACCCAUGUAUAGCGCGCUACGCUAGUCCUCGUAUUUGAGAAGGUUUGAUAAAAG [Mat - Exclusion NG 2 - Mod of JL - D76] (Eterna round: R96, puzzle: Exclusion NG 2)
measured-parameter: apparent KD of MS2 coat protein
unit-symbol: nM
reported: 13.4
//
macromolecule-sequence: AGCGCCAUCGUGAGAUGGCGUAUUACAUGAGGAUCACCCAUGUAGGAUAUCGAUUGCUUUGCAGUCGAGAAGGGCAUGUCCAAG [JL ENG3 3.80 Mod I] (Eterna round: R96, puzzle: Exclusion NG 3)
measured-parameter: apparent KD of MS2 coat protein
unit-symbol: nM
reported: 37.8

Asked: Consider the sequence shown here: UUAAUUUAAGGGAUAGAUCAUUACAUGAGGAUCACCCAUGUUGAGGAUAUCAGCUCGAUUAGAGCUGAGAAGGCAACAAUAGGG [ExNG3/14-A1] (Eterna round: R96, puzzle: Exclusion NG 3) What is its recorded apparent KD of MS2 coat protein?
Given back: 47.1

Asked: # iterate: GGUCAGACGGUAGGAUAUUCAUAUCGAGUGACCCUUUCAUAACAUGAGGAUCACCCAUGUCGGUGGGAGAAGGGCCGUACGGCG [salish99_ExNG02_R04_008] (Eterna round: R96, puzzle: Exclusion NG 2)
Given back: 31.9

----------
- System: MS2 coat protein
- protocol-description: apparent KD of MS2 coat protein, switch ON state; designed switch direction (-1 OFF switch, 1 ON switch): 1; higher = weaker reporter binding
- condition: FMN input: 0 or 200 uM; Eterna round: R93 (includes R88 designs)
measured-parameter: apparent KD of MS2 coat protein (nM)
Express the result in nM but write the number alone.

Illustrative cases are given below, each with its answer.
macromolecule-sequence: AAAAAAAAAUCACAGGAUAUACAAAAAAAAACAUGAGGAUCACCCAUGUAAAAAAAAAAAAAAAAGUAGAAGGGUGAUCCAAAAAA
measured-parameter: apparent KD of MS2 coat protein
reported: 12.1
//
macromolecule-sequence: CGGAGACAUGAGGAUCACCCAUGUGAGAAGAGGCGAGGAUAUCGAAAGAAAGAAGAGAAACGAGAAGGCGCGAGCU [salish99-SS1-072]
measured-parameter: apparent KD of MS2 coat protein
reported: 23.1
//
macromolecule-sequence: AGAAAACAUGAGGAUCACCCAUGUGACAAUAUGGGAGGAUAUACGAAGACGAAAGUCGAAGUAGAAGGCCUAAAGA [Garnet 50]
measured-parameter: apparent KD of MS2 coat protein
reported: 23.4

Note: attention shifts to another entry.
Asked: Give MS2 coat protein apparent KD of MS2 coat protein for GCAGGGCCACACUAGGAUAUGGGUGUCUAGACAUGAGGAUCACCCAUGUUAUGGCAAAACAAAGCUCAGAAGGAGUCGUGGCCCA [Tizasozaer]
Given back: 11.8

----------
- Test system: K4 kissing-loop RNA reporter;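 further: bound reporter read as fluorescence of individual clusters on recovered sequencing chips by microscopy, with normalized cluster intensities fitted with a binding model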
- protocol-description: apparent KD of K4 kissing-loop reporter; higher = weaker reporter binding
- condition: Eterna round: R107; input ligand: none
Just so you know, the groups by apparent KD of K4 kissing-loop reporter go like this: low-valued (below 100 nM), mid-valued (100 nM to below 200 nM), high-valued (200 nM or more)

macromolecule-sequence: GGACAAGCAUUAGGAUAUAUAGAGCGAAACGCAAUUGAGUGAUGUUCAAAAGCAUAGGGCGAGGAAAUAGAAGGAAUGCACGGGC [Default title]
label: high-valued

Asked: Which class does AAGGCCACGAGAAGGAGCGUGCUGUGGAGUGAUGUUCCAUUGUAGACCUAAGGUCUACGAGCACAGGUAGGUCGCUCGUGGUCAA [Omei KL Arginine B SS A v4] fall in?
Given back: low-valued

Asked: # iterate: UGUCAUUGGUCGGCCGCCACUAUAUAAAAGAGUGAUGUUCUAAAGACGGAUCGAAAGAUCUGUCAUAGGACCGGGACCGAUGACU [TrypBS 20 #SwitchBubble #StaticStem]
Given back: high-valued

Asked: # iterate: GUGAGGAUCCGAAGGAGCGUCCGCAAUCCAGUGAUGUUGGGUGUUGGUUAUAUUUAACGAGGACAGGUAGGUCGCGGAUUUUCAA [Same State Arginie B GF 22]
Given back: mid-valued

Asked: # iterate: UACUAUAGUGAUGUUAUAGAUAAACCAGAUACCAGUGUAACAUAACACCCUUGGCAGCUGAUGAGGGAAGUUAUCAAAAGAUAAC [AstroSTH-A#10designED4.80]
Given back: mid-valued

Asked: # iterate: GUUACGCAUGGAAGGAGCGCUCUCAGGCUUAAUAACACAGUGAUGUUGUGAAUUUGCCUAAAGCAGGUAGGUCGCCAUGUGUAAC [Ex Arginine B K4 9]
Given back: high-valued

Asked: # iterate: CGUUUAUAGGAGGAUACCAGUACGGAUAAAGUACGUUAAUAGUAGAGUGAUGUUCUAAAGUACCCUUGGCAGCUUAGAGUGAGUG [ExTheophylB.N]
Given back: mid-valued

Asked: # iterate: AGUGAUGUGGGAAGGAGCGCUACAUCACUUCAGUGAUGUUGAAGUGAUGAAUUAGUGAUGUAGCAGGUAGGUCGCCUAGAUGUUA [KL-XARG-B12]
Given back: low-valued

Asked: # iterate: AAUUAAUACAGAAGGAGCGUGUUUUUUAAUUUAUUUUCAUGAUCGAGUGAUGUUCGAUAUACACAGGUAGGUCGCUGUAUAUUUA [JR_SSArginiB_Sub008]
Given back: mid-valued
